# TEST_DESCRIPTION: inhibitors of GR-EGFP nuclear translocation, primary screen, dynein cargo transport inhibitor project, imaging, high-content, 3617.4 mouse cells (AID 1381)
# TEST_CONTEXT: at 50 µM, active compounds read low, stimulated with dexamethasone, 1 µM
Screen size: about 220,000 compounds; about 1,000 (0.45%) were called active. The full list was thinned out, with actives kept by preference.
Just a reminder that ties go to NO: only z-score strictly below -0.7 counts as YES.

is_below(z-score, -0.7) for CSC1=N/C(=C\c2ccc3c(c2)OCO3)C(=O)S1 ?
NO

is_below(z-score, -0.7) for Cc1ccc(NC(=O)c2cc(-c3ccc(C)o3)nc3ccccc23)nc1 ?
YES

is_below(z-score, -0.7) for Cc1ccc(-c2cc(C(=O)NCC3CCCO3)c3ccccc3n2)o1 (stereo unspecified) ?
YES

is_below(z-score, -0.7) for CC1=C/C(=N\OS(=O)(=O)c2ccccc2)C=CC1=O ?
YES

is_below(z-score, -0.7) for O=C(Nc1ccc(F)cc1)c1cccnc1N1CCOCC1 ?
NO
